Can you tell me pIC50 for the items I'm about to list?
Tested on: LoVo/DX (colon cancer doxorubicin-resistant)
Assay: Antiproliferative activity in vitro, SRB assay
Type: cell-based, human
Conditions: Homo sapiens, LoVo/DX, 72 h exposure, read-out: IC50 ± SD LoVo/DX
Give bare numbers, as −log10 of the molar value.

List reported pIC50 for each of these compounds:
1. O=C1C[C@@H](c2ccccc2)Oc2cc(O)cc(O)c21
2. O=C1C[C@@H](c2ccc(O)cc2)Oc2cc(O)cc(O)c21
3. O=c1cc(-c2ccccc2)oc2cc(O)cc(O)c12
4. O=c1cc(-c2ccc(O)c(O)c2)oc2cc(O)cc(O)c12

[4.17, 3.89, 4.89, 4.86]

* * *

Assay: Stability of flavonoids before administration to the cell cultures (diluted in RPMI 1640/Opti-MEM medium), HPLC
Format: physicochemical
Settings: 100 µg/mL, medium with 2 mM L-glutamine, 5% fetal bovine serum, penicillin, streptomycin; 3 h incubation
metric-name: stability after dilution with 1:1 RPMI 1640/Opti-MEM medium

Below: 4 compounds and their reported stability after dilution with 1:1 RPMI 1640/Opti-MEM medium.
INSERT INTO measurements (compound, reported) VALUES
  ('O=c1cc(-c2ccc(O)cc2)oc2c(O)c(O)cc(O)c12 [Compound 10, 8-hydroxyapigenin]', 'complete decomposition'),
  ('O=C1C[C@@H](c2ccc(O)cc2)Oc2cc(O)c(O)c(O)c21 [Compound 15, 6-hydroxynaringenin]', 'complete decomposition'),
  ('O=C1C[C@@H](c2ccc(O)cc2)Oc2cc(O)cc(O)c21', 'stable'),
  ('O=C1C[C@@H](c2ccc(O)cc2)Oc2c(O)c(O)cc(O)c21 [Compound 14, 8-hydroxynaringenin]', 'complete decomposition');

Please look up its stability after dilution with 1:1 RPMI 1640/Opti-MEM medium: `O=c1cc(-c2ccc(O)cc2)oc2cc(O)cc(O)c12`
stable

* * *

Can you tell me pIC50 for the items I'm about to list?
Test system: MCF7 (breast carcinoma)
Assay: Antiproliferative activity in vitro, SRB assay
Type: cell-based, human
Conditions: Homo sapiens, MCF7; 72 h exposure, SRB; read-out: IC50 ± SD MCF7
Give bare numbers, as −log10 of the molar value.

Below: 3 compounds and their reported pIC50.
INSERT INTO assay_data (compound, reported) VALUES
  ('COc1ccc([C@@H]2CC(=O)c3c(O)cc(O)cc3O2)cc1O', 3.78),
  ('O=c1cc(-c2ccc(O)c(O)c2)oc2cc(O)cc(O)c12', 4.59),
  ('COc1ccc(C2CC(=O)c3c(O)cc(O)c(O)c3O2)cc1O (stereo not shown) [Compound 18, 8-hydroxyhesperetin]', 3.87);

Now for a further compound.
What value of pIC50 on MCF7 (breast carcinoma) does `O=C1C[C@@H](c2ccccc2)Oc2cc(O)cc(O)c21` have?
3.83

* * *

System: HLMEC (lung microvascular endothelial cells)
Experiment: Antiproliferative activity in vitro, SRB assay
Format: cell-based, human
Details: 72 h exposure, SRB; normal cell line; read-out: IC50 ± SD HLMEC
metric-name: pIC50
Give bare numbers, as −log10 of the molar value.

Please look up its pIC50: N.N.[Cl][Pt][Cl] [Cisplatin, reference compound]
5.97

* * *

Tested on: LoVo/DX (colon cancer doxorubicin-resistant)
Test: Antiproliferative activity in vitro, SRB assay
Assay type: cell-based, human
Settings: 72 h exposure, read-out: IC50 ± SD LoVo/DX
metric-name: IC50 (µM)
One number for each entry, in µM.

What value of IC50 on LoVo/DX (colon cancer doxorubicin-resistant) does N.N.[Cl][Pt][Cl] [Cisplatin, reference compound] have?
3.23
